The origin of these recorded values is patent US11827609B2.

- Test system: IL12p40
- Measurement Protocol: Cytokine profiling assay in human PBMCs, IL12p40 detection (MSD)
- Format: cell-based
- Reported Conditions: PBMC; cryopreserved human PBMCs, 24 hours at 37° C., half-maximal effect on normalized percent activation
Parameter Measured: AC50 (nM)
Use nM as the unit, but write only the number.

Solved entries (count: 8):
CCCC[C@](C)(CNC(C)=O)Nc1nc(N)nc2cnccc12 132
CCCC[C@H](CNC(C)=O)Nc1nc(N)nc2cc(F)c(F)cc12 12000
CCCC[C@](C)(CNC(C)=O)Nc1nc(N)nc2nccnc12 1900
CCCC[C@H](CNC(C)=O)Nc1nc(N)nc2ccsc12 8290
CCCC[C@](C)(CNC(C)=O)Nc1nc(N)nc2ccccc12 52.2
CCCC[C@](C)(CNC(C)=O)Nc1nc(N)nc2ccsc12 855
CCCC[C@](C)(CNC(C)=O)Nc1nc(N)nc2ncccc12 364
CCCC[C@](C)(CNC(C)=O)Nc1nc(N)nc2c1CCCC2 9580

Consider the compound shown here: CCCC[C@](C)(CNC(C)=O)Nc1nc(N)nc2c1CN(C(C)=O)CC2 What is its recorded AC50? 2320

Given CCCC[C@H](CNC(C)=O)Nc1nc(N)nc2ccccc12 , state its recorded AC50. 1320

====

- Tested on: TNFα
- Measurement Protocol: Cytokine profiling assay in human PBMCs, TNFα detection (MSD)
- Format: cell-based
- Reported Conditions: PBMC; cryopreserved human PBMCs, 24 hours at 37° C., half-maximal effect on normalized percent activation; read-out: TNFa AC50
Parameter Measured: log10 AC50 (log10 of the value in nM)
The common logarithm of AC50 in nM is what is listed.

Compound	Target Entity	Test Result
CCCC[C@](C)(CNC(C)=O)Nc1nc(N)nc2ccccc12 [Example 1]	TNFα	1.80
CCCC[C@H](CNC(C)=O)Nc1nc(N)nc2ccccc12 [Example 10]	TNFα	3.22
CCCC[C@](C)(CNC(C)=O)Nc1nc(N)nc2c1CCN(C(C)=O)C2 [Example 8]	TNFα	3.66

Could you tell me which log10 AC50 is on file for CCCC[C@](C)(CNC(C)=O)Nc1nc(N)nc2c1CCCC2 [Example 6] ? 4.01

State the recorded log10 AC50 for this entry: CCCC[C@](C)(CNC(C)=O)Nc1nc(N)nc2nccnc12 [Example 14] 3.28

====

In this section, each of the compounds is paired with its reported log10 of AC50.
- System: TNFα
- Measurement Protocol: Cytokine profiling assay in human PBMCs, TNFα detection (MSD)
- Type: cell-based
- Reported Conditions: PBMC; cryopreserved human PBMCs, 24 hours at 37° C., half-maximal effect on normalized percent activation; read-out: TNFa AC50
Transform log10 | Measure AC50 | Unit nM

CCCC[C@](C)(CNC(C)=O)Nc1nc(N)nc2c1CN(C(C)=O)CC2 3.40
CCCC[C@](C)(CNC(C)=O)Nc1nc(N)nc2ncccc12 2.73
CCCC[C@H](CNC(C)=O)Nc1nc(N)nc2cc(F)ccc12 2.75
CCCC[C@H](CNC(C)=O)Nc1nc(N)nc2ccsc12 3.98
CCCC[C@H](CNC(C)=O)Nc1nc(N)nc2cc(F)c(F)cc12 4.01
CCCC[C@](C)(CNC(C)=O)Nc1nc(N)nc2ccsc12 3.04
CCCC[C@](C)(CNC(C)=O)Nc1nc(N)nc2cnccc12 2.04
CCCC[C@](C)(CNC(C)=O)Nc1nc(N)nc2cc(F)c(F)cc12 2.91

Which log10 of AC50 reading was recorded for the compound CCCC[C@](C)(CNC(C)=O)Nc1nc(N)nc2cc(F)ccc12 ? 1.61
